// fold change lookup, one value per entry
# protocol_text: viability loss with induced miR-34 in A549 – imaging, A549 dox-inducible miR-34, nuclei and caspase counts, primary screen (AID 1347080)
# setup_conditions: A549 miR-34 inducible, Hoechst nuclei count, 48 h; stronger effect = lower value; cell number ratio, induced over uninduced
test_readout: fold change

- COCC1CCCN(Cc2cccc(-c3nc(-c4cccnc4)cc(=O)[nH]3)c2)C1 (stereo not drawn): 0.935
- O=C(Nc1ccccc1)c1ccn[nH]1: 0.856
- CC1OC(O[C@H]2/C=C/C=C/C=C/C=C/C=C/C=C/C=C/[C@H](C)[C@@H](O)[C@@H](C)[C@H](C)OC(=O)CC(O)CC(O)CCC(O)C(O)CC(O)CC3(O)C[C@H](O)C(C(=O)O)C(C2)O3)C(O)[C@H](N)C1O (stereo partly drawn): 0.94
- O=[N+]([O-])c1cn2c(n1)OCC(OCc1ccc(OC(F)(F)F)cc1)C2 (stereo not drawn): 0.949
- O=C(O)c1cc(=O)cc(C(=O)O)[nH]1: 0.984
- CCC(C)N1CCC2(CC1)N=c1c(c3c4c5c(C)c(O)c3c(O)c1=NC(=O)/C(C)=C/C=C/[C@H](C)[C@H](O)[C@@H](C)[C@@H](O)[C@@H](C)[C@H](OC(C)=O)[C@H](C)[C@@H](OC)/C=C/O[C@@](C)(O5)C4=O)N2 (stereo partly drawn): 0.966
- O=C1c2c(O)cccc2[C@H]([C@@H]2OC(CO)C(O)C(O)C2O)c2cc(CO)cc(O)c21 (stereo partly drawn): 0.88
- CC(=O)O[C@]1(C(C)=O)CC[C@H]2[C@@H]3C=C(Cl)C4=CC(=O)C5CC5[C@]4(C)[C@H]3CC[C@@]21C (stereo partly drawn): 0.93
- Nc1nc(NC(Cn2ccnc2)c2ccccc2)c2cn[nH]c2n1 (stereo not drawn): 0.958
- C=CCOc1ccccc1OCC(O)CNC(C)C (stereo not drawn): 0.94
- CCCc1ccc(OCC(=O)N(Cc2nc(-c3cccnc3)no2)C(C)C)cc1: 0.834
- Cc1cc(C(C)Nc2ccccc2C(=O)O)c2nc(N3CCOCC3)cc(=O)n2c1 (stereo not drawn): 0.956
- CC(OC1OCCN(Cc2n[nH]c(=O)[nH]2)C1c1ccc(F)cc1)c1cc(C(F)(F)F)cc(C(F)(F)F)c1 (stereo not drawn): 0.911
- COc1ccc2c(C(=O)N(C)Cc3nonc3C)cc(-c3cnn(C)c3)nc2c1: 0.963
- Cc1cccc(CN2CCN(c3ncnc4sccc34)CC2=O)c1: 0.946
- O=C(O)c1ccc(-c2ccccc2[N+](=O)[O-])o1: 0.891
- O=C(OC1CC2CC3C[C@@H](C1)N2CC3=O)c1c[nH]c2ccccc12 (stereo partly drawn): 0.838
- Cc1csc(CNc2nccc(-c3cnn(-c4ccccc4)c3)n2)n1: 0.775

====

// viability lookup, one value per entry
# protocol_text: drug combination growth inhibition, ovarian cancer – cell-based, oncology-focused library, rucaparib conditional, profiling panel (AID 1508598)
# setup_conditions: patient-derived ovarian cancer cells, CellTiter-Glo viability, 144 h; at 0.0195 µM; OCI-C5x cells; with rucaparib 10 µM; stronger effect = lower value; 100% = cells with rucaparib alone
Calls of active or inactive are those of the source.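 Rule for the calls: active = normalized viability below 100% at a tested concentration; inactive = the rest.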
test_readout: viability

• O=C(/C=C/c1ccc2ccccc2n1)c1ccncc1 = 122% (inactive)
• CC(C)(C)C(=O)Nc1ccc2c(c1)C(=O)C(=O)c1ccccc1-2 = 119% (inactive)
• C[C@@]12CC[C@H]3c4ccc(O)cc4C[C@@H](CCCCCCCCCS(=O)CCCC(F)(F)C(F)(F)F)[C@H]3[C@@H]1CC[C@@H]2O (some centres undefined) = 118% (inactive)
• C=C1/C(=C/C=C2\CCC[C@@]3(C)[C@H]2CC[C@H]3[C@H](C)/C=C/[C@@H](C)C(C)C)C[C@H](O)C[C@@H]1O = 103% (inactive)

====

# protocol_text: viability loss with induced miR-34 in A549 – imaging, A549 dox-inducible miR-34, nuclei and caspase counts, primary screen (AID 1347080)
# setup_conditions: A549 miR-34 inducible, Hoechst nuclei count, 48 h; stronger effect = lower value; cell number ratio, induced over uninduced
Peptide text beside a SMILES is read from it. * marks the point of attachment. Cbz = O=C(OCc1ccccc1)*; Boc = CC(C)(C)OC(=O)*
// fold change lookup, one value per entry
test_readout: fold change

* N#Cc1ccc2[nH]c(O)c(-c3ccc(CN4CCOCC4)cn3)c2c1 | 0.757
* c1ccc2c3c([nH]c2c1)[C@H]1C2CCC([C@@H]4CCCN[C@H]24)N1CC3 (some centres undefined) | 0.865
* CCCC1C(=O)N2C(N(C)C)=Nc3ccc(C)cc3N2C1=O (centres undefined) | 0.881
* CCC(=O)OC(OP(=O)(CCCCc1ccccc1)CC(=O)N1C[C@H](C2CCCCC2)C[C@H]1C(=O)O)C(C)C (some centres undefined) | 0.948
* CN(C)C(=O)c1cc(-c2[nH]ncc2-c2ccccc2)c[nH]1 | 0.875
* O=C[C@@H]1CCCN1C(=O)[C@@H]1CCCN1C(=O)OCc1ccccc1 (Cbz-Pro-Pro-aldehyde) | 0.854
* CCCCCCCCCCCCCCCC(=O)N[C@H](CN1CCOCC1)[C@H](O)c1ccccc1 | 1
* CC(C)[C@H](NC(=O)CNC(=O)OC(C)(C)C)C(=O)N[C@H](C=O)C(C)C (Boc-Gly-Val-Val-aldehyde) | 0.895
* CC1C(=O)N(C)C(=O)c2nc[nH]c21 (centres undefined) | 0.928
* CC(C)(F)CC(NC(c1ccc(-c2ccc(S(C)(=O)=O)cc2)cc1)C(F)(F)F)C(=O)NC1(C#N)CC1 (centres undefined) | 0.826
* CC/C=C\C/C=C\C/C=C\CCCCCCCCCCCC(=O)O | 0.989
* COC1C=CO[C@@]2(C)Oc3c(C)c(O)c4c(O)c(c5c(nc6cc(C)ccn65)c4c3C2=O)NC(=O)C(C)=CC=CC(C)C(O)C(C)C(O)C(C)C(OC(C)=O)C1C (some centres undefined) | 0.986
* NCCC1CCCC(CCN)N1 (centres undefined) | 1.09
* Cn1nc(NC(=O)Cn2ccc(-c3ccco3)n2)c2ccccc21 | 0.861
* Cc1ccc(S(=O)(=O)C=CC#N)cc1 | 0.909
* CNc1ncnc2c1ncn2C1OC(CO)C(O)C1O (centres undefined) | 0.908
* C=CC[N@@+]12CC[C@]34c5ccccc5N5/C=C6\C7N(/C=C(\C53)[C@@H](C[C@@H]41)/C(=C/CO)C2)c1ccccc1[C@@]71CC[N@@+]2(CC=C)C/C(=C\CO)[C@@H]6C[C@@H]12 (some centres undefined) | 0.909
* CC(O)C(O)[C@H]1CNc2nc(N)[nH]c(=O)c2N1 (some centres undefined) | 0.979
* O=C(O)c1ccc(C=C2SC(=S)N(c3cccc(C(F)(F)F)c3)C2=O)cc1 | 0.824

====

# protocol_text: viability loss with induced miR-34 in A549 – imaging, A549 dox-inducible miR-34, nuclei and caspase counts, primary screen (AID 1347080)
# setup_conditions: A549 miR-34 inducible, Hoechst nuclei count, 48 h; measured here: total cells without miR-34 induction
test_readout: cell count

* CN1CC(=O)N/C1=N\C(=O)Nc1cccc(Cl)c1 | 9930
* CC(C)c1cc(-c2ccc(F)c3ccccc23)nc(N)n1 | 7980
* COc1ccc(CN2CCN(c3cc(C)nc(N)n3)CC2=O)cc1 | 9240
* CN(Cc1noc(C2CCCC2)n1)C(=O)c1nc(=O)[nH]c2ccccc12 | 9320
* Nc1ccc(N2C(=O)c3ccccc3C2=O)c(Cl)c1 | 10500
* CC(C)(C)NC(=O)C1CC[C@H]2[C@@H]3CC[C@H]4NC(=O)C=C[C@]4(C)[C@@H]3CC[C@]12C (stereo partly drawn) | 8170
* N#Cc1ccc2[nH]c(O)c(-c3ccc(CN4CCOCC4)cn3)c2c1 | 2900
* CCCC(=O)O[C@@]1(C(=O)COC(C)=O)CC[C@H]2[C@@H]3CC(F)C4=CC(=O)C=C[C@]4(C)[C@]3(F)C(O)C[C@@]21C (stereo partly drawn) | 6730
* CCOC(=O)C(CCc1ccccc1)NC(C)C(=O)N1Cc2ccccc2CC1C(=O)O (stereo not drawn) | 8400
* CCCCC#Cc1nc(NC)c2ncn([C@@H]3O[C@H](CO)C(O)[C@@H]3O)c2n1 (stereo partly drawn) | 10100
* CCc1noc(Cn2cnc3sc4c(c3c2=O)CCC(C)C4)n1 (stereo not drawn) | 9340
* CCCCCCCCCC(=O)NC(CN1CCOCC1)[C@H](O)c1ccccc1 (stereo partly drawn) | 7080
* CC1OC(n2cc(F)c(=O)[nH]c2=O)C(O)C1O (stereo not drawn) | 6480
* FC(F)(F)c1ccc(C=Cc2nc(COc3ccc(CCCCn4ccnn4)cc3)co2)cc1 | 5470
* CC(O)c1cn(C2CCN(c3ncnc4nc[nH]c34)CC2)nn1 (stereo not drawn) | 10300
* Cc1sc2ncnc(-c3cccc4cccnc34)c2c1C | 9310
* CCC1OC(=O)C(C)C(=O)C(C)C(OC2OC(C)CC(N(C)C)C2O)[C@](C)(OC)CC(C)C(=O)C(C)C2N(CCCCn3cnc(-c4cccnc4)c3)C(=O)O[C@]12C (stereo partly drawn) | 8440
* O=C(C=Cc1ccccc1)NC(NC(=S)Nc1ccc(Cl)cc1)C(Cl)(Cl)Cl (stereo not drawn) | 2520
* N#CC(C#N)=C(N)/C(C#N)=C/c1ccc(O)cc1 | 9610
* Nc1nc2c(nc(Br)n2C2OC3COP(=O)(O)O[C@@H]3C2O)c(=O)[nH]1 (stereo partly drawn) | 9530
* NC1CCN(O)C1=O (stereo not drawn) | 10200
* CCSCCNc1nccc(-c2cn(C)nc2C)n1 | 9770
* CCCCCCCCCCCCCCCCOCC(CO)OC(C)=O (stereo not drawn) | 5840
* COc1ccc(NC(=O)/C=C/c2ccc(Cl)cc2)cc1 | 6550
* O=c1cc(-c2ccncc2)nc(-c2cccc(CN3CCCC(CO)C3)c2)[nH]1 (stereo not drawn) | 9070
* CCC(=O)O[C@H]1CCC2C3CCc4cc(O)ccc4C3CC[C@@]21C (stereo partly drawn) | 11500
* O=C(O)c1ccc(-c2ccc(F)cc2)cc1 | 8390
* C[C@@H]1C(=O)O[C@H]2CC34[C@H]5C[C@@H](C(C)(C)C)[C@]36[C@@H](OC(=O)[C@@H]6O)O[C@@]4(C(=O)O5)[C@]21O (stereo partly drawn) | 9940
* COc1cc2c(CCNC(C)=O)c[nH]c2cc1O | 11000
* O=[N+]([O-])OCC(CO[N+](=O)[O-])O[N+](=O)[O-] | 12700
* OCCN1CCN(CC/C=C2/c3ccccc3Sc3ccc(Cl)cc32)CC1 | 8250
* C[C@H]1[C@H](C)CC[C@]2(C(=O)O[C@@H]3O[C@H](COC4O[C@H](CO)[C@@H](OC5O[C@@H](C)[C@H](O)[C@@H](O)[C@H]5O)[C@H](O)[C@H]4O)[C@@H](O)[C@H](O)[C@H]3O)CC[C@]3(C)C(=CC[C@@H]4[C@@]5(C)C[C@@H](O)[C@H](O)[C@@](C)(CO)C5CC[C@]43C)[C@H]12 (stereo partly drawn) | 9340
* CN[C@@H]1[C@H](O[C@H]2[C@H](O[C@@H]3[C@@H](O)[C@H](O)[C@@H](N=C(N)N)[C@H](O)[C@H]3N=C(N)N)O[C@@H](C)[C@]2(O)CO)O[C@@H](CO)[C@H](O)[C@H]1O | 9910
* CC1CC[C@]2(C(=O)O)CC[C@]3(C)C(=CC[C@H]4[C@@]5(C)CC(O)C(O)[C@@](C)(CO)[C@@H]5CC[C@]43C)[C@H]2C1C (stereo partly drawn) | 9460
* Cc1ccc(NC(=O)c2ccc(CN3CCN(C)CC3)cc2)cc1Nc1nc(-c2cccnc2)cs1 | 6420
* OCc1ccc(OC2OC(CO)C(O)C(O)C2O)cc1 (stereo not drawn) | 8420
* C#C[C@@]1(OC(C)=O)CC[C@H]2[C@@H]3CCC4=CC(OC(C)=O)CC[C@@H]4[C@@H]3CC[C@@]21C (stereo partly drawn) | 8260
* C=CC1=C(C(=O)O)N2C(=O)C(NC(=O)C(=NO)c3csc(N)n3)C2SC1 (stereo not drawn) | 10300

Origin of the recorded values: PubChem BioAssay
